- experimental target: T1, cyno CCL17 (Macaca fascicularis (cyno), UniProt Q8HYP9 24-94 (rhesus entry))
- T1 sequence: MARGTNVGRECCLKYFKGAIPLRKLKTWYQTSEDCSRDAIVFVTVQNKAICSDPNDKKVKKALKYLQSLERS
- protocol notes: cell-based or functional assay
recorded endpoint: IC50 (nM), calcium flux assay in CCRF-CEM cells, 5 ng/ml cyno CCL17
Form entry: value (nM) — number only.

Field: example entries. Status: answers known.
{"columns": ["binder", "data value"],
 "data": [
  ["C17B241 (antibody, V domains shown, Full IgG1, kappa) VH: EVQLVQSGAEVKKPGESLKISCKGSGYSFTSYWIGWVRQMPGKGLEWMGIIDPSDSDTRYSPSFQGQVTISADKSISTAYLQWSSLKASDTAMYYCARVGPADVWDSFDYWGQGTLVTVSS VL: DIVMTQSPDSLAVSLGERATINCKSSQSVLNSFTNNNALAWYQQKPGQPPKLLIYEASTRESGVPDRFSGSGSGTDFTLTISSLQAEDVAVYYCQQTNSIPLTFGQGTKVEIK", 0.339],
  ["C17B242 (antibody, V domains shown, Full IgG1, kappa) VH: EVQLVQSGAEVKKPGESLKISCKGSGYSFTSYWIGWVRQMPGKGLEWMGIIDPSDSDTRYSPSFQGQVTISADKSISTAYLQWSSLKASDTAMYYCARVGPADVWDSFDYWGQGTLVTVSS VL: DIVMTQSPDSLAVSLGERATINCKSSQSVLFSHDNLNTLAWYQQKPGQPPKLLIYHASTRESGVPDRFSGSGSGTDFTLTISSLQAEDVAVYYCQQYYAVPQTFGQGTKVEIK", 0.34]
]}

get_value(item= C17B238 (antibody, V domains shown, Full IgG1, kappa) VH: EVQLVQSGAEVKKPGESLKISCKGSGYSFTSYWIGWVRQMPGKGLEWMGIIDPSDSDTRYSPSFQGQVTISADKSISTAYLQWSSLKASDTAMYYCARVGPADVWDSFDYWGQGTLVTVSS VL: DIVMTQSPDSLAVSLGERATINCKSSQSVLISAFNQNPLAWYQQKPGQPPKLLIYDASTRESGVPDRFSGSGSGTDFTLTISSLQAEDVAVYYCQQYQFIPFTFGQGTKVEIK , readout=IC50 (nM), calcium flux assay in CCRF-CEM cells, 5 ng/ml cyno CCL17) returns 0.348

Ref: patent US20220348647A1
